# Tested on: DeltatarO mutant
# test: S. aureus survival, RN4220 and DeltatarO strains – OD600, teichoic acid synthesis inhibitors, primary screen (AID 463173)
# condition notes: S. aureus RN4220 wild type/DeltatarO growth, OD600, 18 h, screened at 18.75 µg/mL (by protocol)
Screen size: about 52,000 compounds; about 4,300 (8.3%) were called active. Rule as the data show it: active = survival mostly below about 52% (no sharp cut-off); inactive = mostly above about 56%. For the sample, actives were picked, then their nearest neighbours and some compounds at random.
The categories you may choose from are active, inactive

CN1C(=O)c2ccccc2Sc2ccc(NC(=O)COc3ccc(F)cc3)cc21: inactive
O=C(COc1ccccc1F)Nc1ccc(-c2nc3ccccc3s2)cc1: inactive
COc1ccccc1CNC(=O)CCc1c(C)nc2cc(-c3ccc(Cl)cc3)nn2c1C: inactive
O=C(Cn1ncc2c3ccccc3n(Cc3ccc(Cl)cc3)c2c1=O)NCCC1=CCCCC1: inactive
Cc1cccc(CSc2nc3c(c(=O)[nH]2)C(c2cccc(O)c2)CC(=O)N3)c1 (stereo unspecified): inactive

IN: How was `O=S(=O)(c1ccc(C2CCCCC2)cc1)N1CCN(c2ccc(Cl)c(Cl)c2)CC1` classified in this test?
OUT: active

====

Quick reference: survival of the listed items.
# System: DeltatarO mutant
# test: S. aureus survival, RN4220 and DeltatarO strains – OD600, teichoic acid synthesis inhibitors, primary screen (AID 463173)
# condition notes: S. aureus RN4220 wild type/DeltatarO growth, OD600, 18 h, active compounds read low, screened at 18.75 µg/mL (by protocol)
Screen size: about 52,000 compounds; about 4,300 (8.3%) were called active. The sample as a whole holds a higher share of actives than the screen did.

As a guide, the following entries are already answered.
Cc1ccc(NC(=O)c2cc3c(Cl)nc4ccc(C)cc4c3s2)c(Cl)c1: 68% (inactive)
O=C(NC1CCCCC1)N(Cc1nc2ccccc2c(=O)[nH]1)C1CCCC1: 85% (inactive)
O=C(NC1CCCCCC1)c1cc2c(Cl)nc3ccccc3c2s1: 116% (inactive)
CCC(=O)N1CCc2cc(S(=O)(=O)NC(Cc3ccccc3)C(=O)Nc3ccc(C)cc3)ccc21 (stereo not drawn): 64% (inactive)
Cc1ccc2nc(Cl)c3cc(C(=O)NC4CCC(C)CC4)sc3c2c1 (stereo not drawn): 57% (inactive)

IN: Form field: survival recorded for `O=C(/C=C\c1ccco1)Oc1cccc2cccnc12` with DeltatarO mutant (enter value)
OUT: 2% (active)

IN: Could you share what survival was measured for `O=C(NCCCc1nc2ccccc2n1Cc1ccc(Cl)cc1)C1CCCCC1` , tested on DeltatarO mutant?
OUT: 64% (inactive)

IN: Look up survival with DeltatarO mutant for this compound: `Cc1ccccc1OCCCn1c(CCNC(=O)C2CCCCC2)nc2ccccc21`
OUT: 61% (inactive)

IN: Please provide the recorded survival for O=C(NCc1ccccc1Cl)c1ccc2c(c1)NC(=O)C(CS(=O)(=O)Cc1ccc(F)cc1Cl)N2 (stereo not drawn) , tested on DeltatarO mutant.
OUT: 81% (inactive)

IN: Which survival is reported with DeltatarO mutant for this entry: `CCC(=O)N1CCc2cc(CNS(=O)(=O)c3ccc(Cl)s3)ccc21` ?
OUT: 93% (inactive)

IN: Give the reported survival for `O=c1c2sc3ccccc3c2n(Cc2cccc(C(F)(F)F)c2)c(=O)n1-c1ccccc1` (system: DeltatarO mutant).
OUT: 73% (inactive)

IN: Give recorded survival with DeltatarO mutant for the following compound: `O=C(NC1CCCCC1)c1cc2c(Cl)nc3ccccc3c2s1`
OUT: 80% (inactive)

====

# Tested on: DeltatarO mutant
# test: S. aureus survival, RN4220 and DeltatarO strains – OD600, teichoic acid synthesis inhibitors, primary screen (AID 463173)
# condition notes: S. aureus RN4220 wild type/DeltatarO growth, OD600, 18 h, active compounds read low, screened at 18.75 µg/mL (by protocol)
About 4,300 (8.3%) of roughly 52,000 compounds were called active. Many of the other results were omitted from the sample, so actives are more common in it than they were.
Field 'label' (enum: 1.0 / 0.0). Set to 1.0 when survival is strictly under 80%; else 0.0.

Recorded results for 5 compounds are shown here.
Cc1ccc(CNC(=O)c2sc3nc4n(c(=O)c3c2C)CCCCC4)cc1: 1.0
CCOC(=O)c1ccccc1NC(=O)c1sc2nc3n(c(=O)c2c1C)CCCCC3: 1.0
CCOc1ccc(NC(=O)CSc2c3c(nc4ccccc24)CCCC3)cc1: 0.0
Cc1ccc(-c2nn(-c3ccccc3)c3c2cnc2ccccc23)cc1C: 1.0
CCOC(=O)c1ccccc1NC(=O)c1sc2nc3n(c(=O)c2c1C)CCCC3: 0.0

IN: Consider the compound COc1cccc(NC(=O)C(Cc2ccccc2)N2Cc3ccccc3C2=O)c1 (stereo not drawn) . Is its survival strictly less than 80%?
OUT: 1.0

====

# System: DeltatarO mutant
# test: S. aureus survival, RN4220 and DeltatarO strains – OD600, teichoic acid synthesis inhibitors, primary screen (AID 463173)
# condition notes: S. aureus RN4220 wild type/DeltatarO growth, OD600, 18 h, active compounds read low, screened at 18.75 µg/mL (by protocol)
Hit rate of the full screen: of about 52,000 compounds, about 4,300 (8.3%) were called active. Only a selection was taken, and actives are over-represented in it overall.
Here the recorded survival is given for each entry.
Answer in %, number only, no unit symbol.

Some entries whose results are on file:
CC1Oc2ccccc2N(CC(=O)NCC2CCCO2)C1=O (stereo not drawn): 83
Cc1cccc(N2CCN(CC(=O)NCc3cccs3)CC2)c1C: 101
CCOc1ccccc1N(C)C(=O)NCc1noc2ccccc12: 108

IN: Return reported survival; argument: `COC(=O)c1sc(N)c(C#N)c1C`
OUT: 74

IN: # lookup: survival of `Cc1ccccc1NC(=O)CSc1cn(CC(=O)N(C(C)C)C(C)C)c2ccccc12`
OUT: 54

IN: Fill in the blank: the reported survival of COc1ccc2sc(N3C(=O)C4CC=C(C)CC4C3=O)nc2c1 (stereo not drawn) is ____.
OUT: 103

IN: Any idea what its survival is? The compound is CCCCN1CC(c2nc3ccccc3n2CCCCOc2cccc(C)c2C)CC1=O (stereo not drawn)
OUT: 2

IN: Can you share its survival? I mean this compound: CCCCN1CC(c2nc3ccccc3n2CCCCOc2c(C)cccc2C)CC1=O (stereo not drawn)
OUT: 46

IN: Quick one: survival for CCOC(=O)C1=C(CN2CCN(c3ccccc3F)CC2)NC(=O)NC1c1ccc(OC)cc1 (stereo not drawn) ?
OUT: 70

IN: Which survival reading was recorded for the compound `Cc1ccc(NS(=O)(=O)c2ccc3c(c2)CCCN3C(=O)C2CCC2)c(C)c1` ?
OUT: 85

IN: Dear colleague, I am looking for the recorded survival of the following compound: `Cn1c(=O)c2cc(C(=O)NCCCN3CCN(c4ccc(F)cc4)CC3)sc2c2ccccc21`
OUT: 70

IN: // returns reported survival for input Cc1ccc(N(C)C(=O)CC(C)S(=O)(=O)c2ccc3c(c2)NC(=O)CO3)cc1 (stereo not drawn)
OUT: 120

IN: Entry `CCOC(=O)c1c(C)[nH]c(C)c1S(=O)(=O)NCC(=O)Nc1cccc(SC)c1` : reported survival = ?
OUT: 66

IN: Any idea what survival was measured for `COc1ccc(-c2cc(C(F)(F)F)nc(SCC(=O)Nc3ccc(C(C)=O)cc3)n2)cc1` ?
OUT: 59

====

# Tested on: DeltatarO mutant
# test: S. aureus survival, RN4220 and DeltatarO strains – OD600, teichoic acid synthesis inhibitors, primary screen (AID 463173)
# condition notes: S. aureus RN4220 wild type/DeltatarO growth, OD600, 18 h, active compounds read low, screened at 18.75 µg/mL (by protocol)
In all, about 52,000 compounds went through this assay and about 4,300 (8.3%) were called active. What follows is part of a selection rich in actives, with near analogues and random picks from the rest.
Output rule met for records whose survival is lower than 70%, rule not met for records at or above 70%.

IN: # check: survival < 70% for `O=C(CSc1ncn[nH]1)N1CCOCC1`
OUT: rule not met

IN: Does this compound meet the criterion survival < 70%? CCOc1ccc(NC(=O)C(=O)NCC(c2cccnc2)N2CCc3ccccc32)cc1 (stereo not given)
OUT: rule met

IN: Quick check: survival of `CCc1ccc(NC(=O)Cn2c(=O)n(-c3cc(C)cc(C)c3)c(=O)c3oc4ccccc4c32)cc1` under 70%?
OUT: rule not met

IN: Please determine if COc1ccc(CC(=O)NC2CC(=O)N(c3cccc(F)c3)C2)cc1 (stereo not given) is below 70% in terms of survival.
OUT: rule not met

IN: Take the compound `Cc1ccc(S(=O)(=O)c2nc(-c3ccco3)oc2SCc2ccc(F)cc2)cc1` and say whether its survival is less than 70%.
OUT: rule met

IN: Lab note: confirm whether the reported survival for this compound is below 70%, equality not counting. compound: CCC(Sc1nc2c(sc3ccccc32)c(=O)n1CCc1ccccc1)C(=O)N(CC)CC (stereo not given)
OUT: rule met
